# ASSAY TARGET: Aminopeptidase N (Plasmodium falciparum (isolate 3D7)) (UniProt O96935)
# Sequence (O96935 whole entry, looked up): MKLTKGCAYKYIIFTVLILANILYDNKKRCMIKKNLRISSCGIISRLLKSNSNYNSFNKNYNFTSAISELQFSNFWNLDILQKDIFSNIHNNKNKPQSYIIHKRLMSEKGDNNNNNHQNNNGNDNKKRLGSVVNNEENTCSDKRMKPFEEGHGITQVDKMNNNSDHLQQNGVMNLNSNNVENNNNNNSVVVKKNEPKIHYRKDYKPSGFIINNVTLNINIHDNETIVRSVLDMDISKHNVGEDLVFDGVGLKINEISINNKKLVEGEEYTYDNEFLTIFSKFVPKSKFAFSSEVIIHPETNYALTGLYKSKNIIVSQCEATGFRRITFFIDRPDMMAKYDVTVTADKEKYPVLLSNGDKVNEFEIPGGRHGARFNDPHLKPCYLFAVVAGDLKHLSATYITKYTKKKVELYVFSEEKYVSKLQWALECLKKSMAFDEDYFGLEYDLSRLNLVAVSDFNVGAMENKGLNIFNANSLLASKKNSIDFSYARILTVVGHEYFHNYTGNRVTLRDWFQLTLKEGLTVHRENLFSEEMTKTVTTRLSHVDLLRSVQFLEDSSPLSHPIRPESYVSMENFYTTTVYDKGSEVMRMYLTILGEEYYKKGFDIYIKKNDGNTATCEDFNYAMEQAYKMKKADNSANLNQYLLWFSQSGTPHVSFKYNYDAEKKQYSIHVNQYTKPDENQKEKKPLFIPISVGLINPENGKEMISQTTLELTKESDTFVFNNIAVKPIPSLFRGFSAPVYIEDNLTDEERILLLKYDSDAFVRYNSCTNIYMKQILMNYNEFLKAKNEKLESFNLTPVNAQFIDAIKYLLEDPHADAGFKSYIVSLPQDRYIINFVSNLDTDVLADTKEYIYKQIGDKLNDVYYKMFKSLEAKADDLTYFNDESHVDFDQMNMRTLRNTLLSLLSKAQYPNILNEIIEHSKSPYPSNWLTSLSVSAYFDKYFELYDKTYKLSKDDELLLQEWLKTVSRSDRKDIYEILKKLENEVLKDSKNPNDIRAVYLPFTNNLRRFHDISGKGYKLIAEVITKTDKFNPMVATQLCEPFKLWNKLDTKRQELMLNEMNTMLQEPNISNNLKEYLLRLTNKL
# METHOD SUMMARY: malaria alanyl aminopeptidase activity blockers – biochemical, fluorogenic H-Leu-NHMec substrate, 1536-well (AID 1445);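 further: plate controls were DMSO full reaction for no effect and no enzyme background for full effect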
# RECORDED CONDITIONS: recombinant M1AAP, H-Leu-NHMec fluorogenic kinetic assay; at 30 µM, active compounds read high unless noted
The whole screen tested about 220,000 compounds, of which about 910 (0.41%) were called active. This excerpt belongs to a sample that is enriched for actives. Entries with a potency or affinity are not part of this list.
I'd appreciate it if you could supply inhibition values for the items below.
One number for each entry, in %.

Example entries begin here.
COMPOUND | TEST RESULT
COc1cccc(C2=NN(C(=O)CCCC(=O)O)C(c3cccs3)C2)c1 (centres undefined) | 2.4
Cc1cccc(N2CCN(C(=O)CC(NC(=O)c3ccccc3)c3ccccc3)CC2C)c1 (centres undefined) | -5.51
Cc1ccc(C2=NN(C(=O)CCC(=O)O)C(c3cccs3)C2)cc1 (centres undefined) | -2.92
CCOc1ccc(/C=C2\SC(=S)N(C(C(=O)O)c3ccccc3)C2=O)cc1OC (centres undefined) | 14.7
C=CCOc1ccc(/C=C2\SC(=S)N(N3CCOCC3)C2=O)cc1 | -2.77
Cc1ccc(Cn2ccc(NC(=O)c3noc4c3CCc3ccccc3-4)n2)cc1 | 8.24
CC1CCCC(NC(=O)CCn2c(=S)oc3ccccc32)C1C (centres undefined) | 3.48
COc1ccc(OC)c(C2CC(c3c(-c4ccccc4)c4cc(Cl)ccc4[nH]c3=O)=NN2S(C)(=O)=O)c1 (centres undefined) | 6.89
COc1ccccc1C1CC(c2c(-c3ccccc3)c3cc(Cl)ccc3[nH]c2=O)=NN1S(C)(=O)=O (centres undefined) | 33.3
NS(=O)(=O)c1ccc(CCNC(=O)c2ccc(Cn3c(=O)[nH]c4ccccc4c3=O)cc2)cc1 | 4.04

The following compounds each have a reported value; give each one's inhibition.
1. O=[N+]([O-])c1cc(S(=O)(=O)Nc2ccccc2)ccc1NCc1cccnc1
2. COc1ccc(C2=NN(C(=O)CCC(=O)O)C(c3cccs3)C2)cc1 (centres undefined)
3. O=C(O)CCC(=O)N1N=C(c2ccco2)CC1c1cccs1 (centres undefined)
4. CC(=O)Nc1c(C(=O)c2ccccc2)oc2ccccc12

6.72
6.04
-6.29
10.6

====

Kindly supply the reported inhibition values for the records listed here.
# ASSAY TARGET: Aminopeptidase N (Plasmodium falciparum (isolate 3D7)) (UniProt O96935)
# METHOD SUMMARY: malaria alanyl aminopeptidase activity blockers – biochemical, fluorogenic H-Leu-NHMec substrate, 1536-well (AID 1445);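 further: plate controls were DMSO full reaction for no effect and no enzyme background for full effect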
# RECORDED CONDITIONS: recombinant M1AAP, H-Leu-NHMec fluorogenic kinetic assay; at 30 µM, active compounds read high unless noted
In all, about 220,000 compounds went through this assay and about 910 (0.41%) were called active. The list comes from a sample in which actives are over-represented; it also holds close analogues and randomly drawn compounds. Measured potencies and affinities stand elsewhere.
One number for each entry, in %.

Example cases with answers are listed next.
MOLECULE | ASSAY TARGET | UNIT ANNOTATION | inhibition
CCN(CC)CCC(=O)Nc1cccc2c1C(=O)c1ccccc1C2=O | Aminopeptidase N (Plasmodium falciparum (isolate 3D7)) (UniProt O96935) | % | 7.62
COC(=O)c1ccc(Sc2ccc(C)cc2)c(N)c1 | Aminopeptidase N (Plasmodium falciparum (isolate 3D7)) (UniProt O96935) | % | 11.3
CCOCCCNS(=O)(=O)c1ccc(OC)c(Cl)c1Cl | Aminopeptidase N (Plasmodium falciparum (isolate 3D7)) (UniProt O96935) | % | -1.01

Dear colleague, could you send me inhibition for each of the items below? Thanks.
1. O=C(O)COc1c(-c2ccco2)oc2ccccc2c1=O
2. CCO/C=C1\C(=O)N(c2ccccc2)C(=O)c2ccccc21
3. CCOCCCNCc1cccc(OCc2ccc(F)cc2)c1
4. CCOc1cc(/C=C2\SC(=Nc3ccccc3)N(c3ccccc3)C2=O)ccc1OCC(=O)O
5. COc1ccc(CC(NC(C)=O)C(=O)NC2CCN(c3c(Cc4ccccc4)c(C)nc4ncnn34)CC2)c(OC)c1 (configuration not stated)
6. CN(C)C(=O)CN1C(=O)C2CCCCN2C(=O)c2ccccc21 (configuration not stated)
7. Cc1ccc(-n2c(N)c(C(=O)N3CCOCC3)sc2=S)cc1
8. CCOc1cc(C=C2C(=O)c3ccccc3C2=O)ccc1OCC(=O)Nc1ccc(C)cc1

9.28
-1.51
-0.98
8.93
-2.17
8.25
-1.83
2.91

# batch: return inhibition for each of the 7 molecules below
1. Cn1nnnc1Sc1ccc([N+](=O)[O-])cc1Cl
2. Cc1c(O)c(CN2CCCCC2)cc2c1oc(=O)c1ccccc12
3. Cc1c(O)c(CN2CCCC2)cc2c1oc(=O)c1ccccc12
4. Nc1ncc(Br)cc1S(=O)(=O)NCCC(=O)Nc1cccc(Cl)c1
5. O=C(N/N=C/c1ccc(Cl)s1)c1ccccc1[N+](=O)[O-]
6. CN(C)S(=O)(=O)c1ccc(C(=O)OCCn2cnc3c2c(=O)n(C)c(=O)n3C)cc1
7. N#C/C(=C/c1ccncc1)c1nc2ccccc2s1

1. 4.02
2. 1.46
3. 11.4
4. 0.42
5. 9.55
6. -2.31
7. -2.18

For every record below, what is its inhibition?
1. O=C(CN1CCC(NC(=O)c2ccccc2Cl)CC1)NCc1ccco1
2. COc1cc(/C=C(\C#N)c2nc3ccc(C)cc3[nH]2)c([N+](=O)[O-])cc1OC
3. CCO/C=C1/C(=O)N(c2ccc(OC)cc2)C(=O)c2ccccc21
4. Cc1oc2c(C)c3oc(=O)c4c(c3cc2c1C)CCCC4

12.1
14.8
4.8
4.09
